Molecular target: T1, MBP-fused PDZ domain of MAST1 (human, UniProt Q9Y2H9 967-1055)
T1 sequence (looked up): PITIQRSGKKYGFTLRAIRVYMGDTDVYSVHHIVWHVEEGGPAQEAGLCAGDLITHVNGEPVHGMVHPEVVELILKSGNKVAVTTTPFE
Test: fluorescence polarisation
Where no end group is shown, it is not given here.
quantity: pKd
Numbers only, as −log10 of the molar value.

>>> experimental_value("KLPSTTL (peptide, UniProt Q15418 729-735, looked up, also: fluorescein labeled, site not given here) [fluorescein labeled RSK1 729-735 peptide, unphosphorylated]")
4.59

Okay, next one:
Per the record, KLPSTTL (peptide, UniProt Q15418 729-735, looked up, phosphorylated; fluorescein labeled) [fluorescein labeled RSK1 729-735 peptide, phosphorylated] has pKd of 4.47

Data origin: paper PMC6424611
